Examples of molecules with documented IC50 follow.
# Organism: Rattus norvegicus
# assay_name: Ability to inhibit N-formyl-methionyl-leucyl-phenylalanine (fMLP)-stimulated release of myeloperoxidase (MPO) from rat polymorphonuclear leukocytes (PMN).
# Type: functional
// return numeric value only (unit: µM, not printed)

cpd_smiles	IC50 (µM)
O=C(/C=C/c1ccncc1)c1cccc(C(F)(F)F)c1	41
O=C(/C=C/c1ccncc1)c1ccco1	50
CN(C)c1ccc(C(=O)/C=C/c2ccncc2)cc1	11
O=C(/C=C/c1ccncc1)c1cccs1	30
COc1cc(C(=O)/C=C/c2ccncc2)cc(OC)c1OC	7

### Prompt // IC50 lookup, key: `CSc1ccc(C(=O)/C=C/c2ccncc2)cc1`
### Response 33

### Prompt // IC50 lookup, key: `O=C(/C=C/c1ccncc1)c1cccc(Cl)c1`
### Response 69

### Prompt // IC50 lookup, key: `CC(C)(C)c1ccc(C(=O)/C=C/c2ccncc2)cc1`
### Response 47

### Prompt // IC50 lookup, key: `COc1cc(C(=O)/C=C/c2cccnc2)cc(OC)c1OC`
### Response 30
